Reference for the values: patent US20250215029A1

# EXPERIMENTAL TARGET: Recombinant STAT6 protein (STAT6 (W123-T658)) (Homo sapiens)
# Construct: Recombinant STAT6 protein (STAT6 (W123-T658))
# Sequence (P42226 123-658): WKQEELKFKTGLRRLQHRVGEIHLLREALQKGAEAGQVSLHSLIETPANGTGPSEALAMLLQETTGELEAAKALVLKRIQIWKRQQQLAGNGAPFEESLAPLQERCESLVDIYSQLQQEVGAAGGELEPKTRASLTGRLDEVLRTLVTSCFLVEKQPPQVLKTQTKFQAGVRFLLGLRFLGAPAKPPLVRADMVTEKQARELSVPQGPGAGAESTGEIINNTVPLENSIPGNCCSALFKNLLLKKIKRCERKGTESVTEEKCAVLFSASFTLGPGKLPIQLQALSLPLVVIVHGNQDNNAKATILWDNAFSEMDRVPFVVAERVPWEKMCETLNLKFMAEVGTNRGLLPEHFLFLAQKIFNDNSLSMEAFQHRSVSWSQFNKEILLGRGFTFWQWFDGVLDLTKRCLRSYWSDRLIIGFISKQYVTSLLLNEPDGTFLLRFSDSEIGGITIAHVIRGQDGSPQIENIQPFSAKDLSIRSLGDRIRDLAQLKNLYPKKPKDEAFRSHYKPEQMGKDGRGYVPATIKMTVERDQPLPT
# EXPERIMENT DESCRIPTION: STAT6 Fluorescence Polarization (FP) Assay
# Format: binding
# MEASUREMENT PARAMETERS: STAT6 (W123-T658) 250 nM, probe 5-FAM-Ap[…]-NH2 2 nM, 45-minute incubation; read-out: STAT6 (FP assay IC50 class)
# Protocol: STAT6 Fluorescence Polarization (FP) Assay An FP assay was developed to determine IC50 values for test substances. […] Reaction components were mixed, and FP was measured after 45-minute incubation at room temperature using a Tecan Spark multimode plate reader. FP signal (mP) was plotted against the log concentration of the test substances and IC50 values were calculated by nonlinear regression analysis using GraphPad Prism software. […]
pIC50: −log10 of the molar value.
READOUT NAME: pIC50

Examples with their reported pIC50 follow.
- COMPOUND: "Cn1ccc(C2CN(C(=O)[C@@H]3CC[C@@H]4CCCC[C@H](NC(=O)c5cc6cc(C(F)P(=O)(O)O)ccc6s5)C(=O)N43)C3(CC3)C2)cc1=O (some centres unmarked)"
  EXPERIMENTAL TARGET: "Recombinant STAT6 protein (STAT6 (W123-T658)) (Homo sapiens)"
  pIC50: "≥ 6.52"
- COMPOUND: "CC(C)Oc1ccncc1C1CN(C(=O)[C@@H]2CC[C@@H]3C[C@@H](C)C[C@H](NC(=O)c4cc5cc([C@H](F)P(=O)(O)O)ccc5s4)C(=O)N32)C1 (single isomer, unassigned)"
  EXPERIMENTAL TARGET: "Recombinant STAT6 protein (STAT6 (W123-T658)) (Homo sapiens)"
  pIC50: "4.52 to 5.52"
- COMPOUND: "COC1(c2cnccc2C)CN(C(=O)[C@@H]2CC[C@@H]3CCCC[C@H](NC(=O)c4cc5cc(C(F)(F)P(=O)(O)O)ccc5s4)C(=O)N32)C1"
  EXPERIMENTAL TARGET: "Recombinant STAT6 protein (STAT6 (W123-T658)) (Homo sapiens)"
  pIC50: "4.52 to 5.52"
- COMPOUND: "O=C(N[C@H]1CCC[C@H]2CC[C@@H](C(=O)N3CC(c4cccnc4C(F)F)C3)N2C1=O)c1cc2cc(CP(=O)(O)O)ccc2s1"
  EXPERIMENTAL TARGET: "Recombinant STAT6 protein (STAT6 (W123-T658)) (Homo sapiens)"
  pIC50: "4.52 to 5.52"
- COMPOUND: "COc1cc(F)ncc1C1CN(C(=O)[C@@H]2CC[C@@H]3CCC[C@H](NC(=O)c4cc5cc(CP(=O)(O)O)ccc5s4)C(=O)N32)C1"
  EXPERIMENTAL TARGET: "Recombinant STAT6 protein (STAT6 (W123-T658)) (Homo sapiens)"
  pIC50: "4.52 to 5.52"
- COMPOUND: "Cn1ccc(=O)c(C2CN(C(=O)[C@@H]3CC[C@@H]4CCC[C@H](NC(=O)c5cc6cc(CP(=O)(O)O)ccc6s5)C(=O)N43)C2)c1"
  EXPERIMENTAL TARGET: "Recombinant STAT6 protein (STAT6 (W123-T658)) (Homo sapiens)"
  pIC50: "4.52 to 5.52"
- COMPOUND: "O=C(N[C@H]1CCCC[C@H]2CC[C@@H](C(=O)N3C(=O)N(c4ccn(C(F)F)c(=O)c4)C(=O)C34CC4)N2C1=O)c1cc2cc(C(F)P(=O)(O)O)ccc2s1 (some centres unmarked)"
  EXPERIMENTAL TARGET: "Recombinant STAT6 protein (STAT6 (W123-T658)) (Homo sapiens)"
  pIC50: "5.52 to 6.52"
- COMPOUND: "COc1ccnc(C(F)F)c1C1CN(C(=O)[C@@H]2CC[C@@H]3CCC[C@H](NC(=O)c4cc5cc(CP(=O)(O)O)ccc5s4)C(=O)N32)C1"
  EXPERIMENTAL TARGET: "Recombinant STAT6 protein (STAT6 (W123-T658)) (Homo sapiens)"
  pIC50: "4.52 to 5.52"

Looking up O=C(N[C@H]1CCC[C@H]2CC[C@@H](C(=O)N[C@@H]3CC[C@H](O)C3)N2C1=O)c1cc2cc(C(F)P(=O)(O)O)ccc2s1 (some centres unmarked) , I found its pIC50 recorded as 4.52 to 5.52

Record summary for "CC(C)OC1(c2nncn2C)CN(C(=O)[C@@H]2CC[C@@H]3CCC[C@H](NC(=O)c4cc5cc(C(F)(F)P(=O)(O)O)ccc5s4)C(=O)N32)C1" : reported pIC50 = 4.52 to 5.52

Value of pIC50 reported for the compound N#CC1C(c2ccccc2)CN(C(=O)[C@@H]2CC[C@@H]3CCC[C@H](NC(=O)c4cc5cc(C(F)(F)P(=O)(O)O)ccc5s4)C(=O)N32)C12CC2 (stereo in doubt) is ≥ 6.52
